Where do these numbers come from? They come from patent US11964949B2.

- Tested on: Mycobacterium tuberculosis H37Rv
- assay-protocol: In vitro assay for antimicrobial susceptibility (microplate Alamar blue, MIC)
- Type: cell-based
- condition-label: Mycobacterium tuberculosis; M. tuberculosis H37Rv, 7H9 broth, Alamar blue; read-out: MIC (μg/mL) against H37Rv
quantity-measured: MIC (µg/mL)
Numbers only, in µg/mL.

Below, 3 molecules whose answers are already recorded.
[[record]]
molecule = "O=C(NC[C@H]1CN(c2cc(F)c(N3CCCSCC3)c(F)c2)C(=O)O1)C1CCC1 [OTB-409]"
unit_symbol = "µg/mL"
number = 0.477

[[record]]
molecule = "O=C(NC[C@H]1CN(c2ccc(N3CCCSCC3)c(F)c2)C(=O)O1)C1CCC1 [OTB-414]"
unit_symbol = "µg/mL"
number = 0.171

[[record]]
molecule = "O=C(NC[C@H]1CN(c2ccc(N3CCCSCC3)c(F)c2)C(=O)O1)c1ccco1 [OTB-111]"
unit_symbol = "µg/mL"
number = 0.125


Proceed to the following item.
Input O=C1O[C@@H](Cn2cncn2)CN1c1ccc(N2CCC[S+]([O-])CCC2)c(F)c1 [OBD-009] . Output MIC: 21.1

* * *

Task for the reader: assign each of the following compounds its reported MIC.
- System: Mycobacterium tuberculosis H37Rv
- assay-protocol: In vitro assay for antimicrobial susceptibility (microplate Alamar blue, MIC)
- Format: cell-based
- condition-label: Mycobacterium tuberculosis; M. tuberculosis H37Rv, 7H9 broth, Alamar blue; read-out: MIC (μg/mL) against H37Rv

[[record]]
compound = "O=C1O[C@@H](Cn2ccnn2)CN1c1cc(F)c(N2CC3(COC3)C2)c(F)c1 [OTB-234]"
result = "0.39 to 4 µg/mL"

[[record]]
compound = "O=C(NC[C@H]1CN(c2cc(F)c(N3CC4(CSC4)C3)c(F)c2)C(=O)O1)C1CCC1 [OTB-244]"
result = "0.02 to 0.6 µg/mL"

[[record]]
compound = "O=C1O[C@@H](CO)CN1c1cc(F)c(N2CC3(COC3)C2)c(F)c1 [OTB-229]"
result = "1.9 to 7.4 µg/mL"

[[record]]
compound = "CC(=O)NC[C@H]1CN(c2ccc(N3CCC[S+]([O-])CCC3)c(F)c2)C(=O)O1 [OTB-124]"
result = "0.26 to 1.4 µg/mL"

[[record]]
compound = "CS(=O)(=O)NC[C@H]1CN(c2cc(F)c(N3CC4(COC4)C3)c(F)c2)C(=O)O1 [OTB-232]"
result = "1.5 to 4 µg/mL"

[[record]]
compound = "O=C(NC[C@H]1CN(c2cc(F)c(N3CC4(COC4)C3)c(F)c2)C(=O)O1)C1CCC1 [OTB-240]"
result = "0.24 to 0.6 µg/mL"


Now turn to the next compound.
Item: CC(=O)NC[C@H]1CN(c2ccc(N3CCCSCCC3)c(F)c2)C(=O)O1 [OTB-114] | System: Mycobacterium tuberculosis H37Rv | MIC: 0.05 to 0.11 µg/mL

* * *

Would you kindly list IC50 for each of these compounds?
- Test system: mitochondrial protein synthesis (MPS) in H9C2 cells
- assay-protocol: In vitro assay for MPS inhibition (COX-1 / SDH-A ELISA in H9C2 cells)
- Assay type: cell-based, rat
- condition-label: Rattus norvegicus, H9c2, 120 h, read-out: IC50 (μM) MPS inhibition

Field: example entries. Status: answers known.
[[record]]
compound = "COC(=O)NC[C@H]1CN(c2ccc(N3[C@@H]4CC[C@H]3CSC4)c(F)c2)C(=O)O1 [OTB-237]"
result = "15 to 23 µM"

[[record]]
compound = "NC[C@H]1CN(c2ccc(N3C4CCC3C[S+]([O-])C4)c(F)c2)C(=O)O1 (some centres unmarked) [OBD-085]"
result = "> 100 µM"

[[record]]
compound = "O=C1O[C@@H](Cn2ccnn2)CN1c1cc(F)c(N2C3CCC2C[S+]([O-])C3)c(F)c1 (some centres unmarked) [OTB-517]"
result = "30 to 55 µM"

[[record]]
compound = "CCCC(=O)NC[C@H]1CN(c2cc(F)c(N3C4CCC3C[S+]([O-])C4)c(F)c2)C(=O)O1 (some centres unmarked) [OBD-242]"
result = "> 100 µM"

[[record]]
compound = "CCCC(=O)NC[C@H]1CN(c2ccc(N3[C@@H]4CC[C@H]3C[S+]([O-])C4)c(F)c2)C(=O)O1 (some centres unmarked) [OBD-017]"
result = "41 µM"

[[record]]
compound = "NC[C@H]1CN(c2cc(F)c(N3C4CCC3C[S+]([O-])C4)c(F)c2)C(=O)O1 (some centres unmarked) [OBD-087]"
result = "> 100 µM"


Please go through the list and note IC50 for each compound.
1. COC(=O)NC[C@H]1CN(c2cc(F)c(N3C4CCC3C[S+]([O-])C4)c(F)c2)C(=O)O1 (some centres unmarked) [OTB-519]
2. NC[C@H]1CN(c2cc(F)c(N3C4CCC3CSC4)c(F)c2)C(=O)O1 [OBD-083]

Given back:
["51 µM", "20 µM"]
